target_under_test: HLA-DR DRB1*1501 (DR15) (Homo sapiens, UniProt P01903+P01911)
assay_method_text: biochemical
Assay type: binding
settings: DRBI *1501
No end group written: not given here.
API: label(entry) gives yes if the entry's IC50 is strictly smaller than 8000 nM; on equality or larger values it gives no.

Worked examples, 4 sequences total:
residue_codes | assigned_class
RIVYRDGNPFAVCKV | yes
AKTFLRTLVRGVPEY | yes
HPLYNMSLLKHQSLR | yes
YLVTGERGFFYTDKT | no

Req: # strict comparison: is reported IC50 < 8000 nM? input = RLFDNASLRAHRLHQ
Resp: yes

Req: # strict comparison: is reported IC50 < 8000 nM? input = MIMIKFMGVIYIMII [MJMIKFMGVIYIMII]
Resp: no
